ELISA signal (OD 405 nm): recorded values
assay target: T1, VHH FC5
T1 construct: put together from its FR and CDR entries; also called FC5-VHH; FC5 control
T1 sequence (VHH, as listed by the source): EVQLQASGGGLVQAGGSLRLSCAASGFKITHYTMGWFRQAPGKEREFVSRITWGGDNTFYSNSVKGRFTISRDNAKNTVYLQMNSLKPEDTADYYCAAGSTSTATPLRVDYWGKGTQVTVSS
assay text: ELISA, hybridoma supernatant on coated purified FC5-VHH
A complete answer gives the number followed by the unit.

Examples from the recorded data:
- binder: "anti-hNav1.7 mAb 3A8 (antibody, V domains shown, also called F233-3A8) VH: QVQLQQPGAELVKPGASVKLSCKASGYTFTNYWMHWVKQRPGQGLEWIGEINPSNGRANYNEKFKSKATLTVDKSSSTAYMQLSSLTSEDSAVYYCARSPYGYYDYWGQGTTLTVSS VL: DVLMTQTPLSLPVSLGDQASISCRSSQSLLHSNGNTYFHWYLQKPGQSPKLLIYKVSNRFFGVPDRFSGSGSGTDFTLKISRVEAEDLGVYFCSQITHVPLTFGAGTKLELK"
  ELISA signal (OD 405 nm): "0.029 OD 405 nm"
- binder: "anti-hNav1.7 mAb 2G11 (antibody, V domains shown) VH: QVQLQQPGAELVKPGASVKLSCKASGYTFTTYWMHWVKQRPGQGLEWIGEINPSNGRANYNEKFKSKATLTVDKSSSTAYMQLSSLTSEDSAVYYCLRSLGYFDYWGQGTTLTVSS VL: DVVMTQSPLSLPVSLGDQASISCRSSQSLVHSNGNTYLHWYLQKAGQSPKFLIYKVSNRFSGVPDRFSGSGSGTDFTLKISRVEAEDLGVYFCSQSTHVPYTFGGGTKLEIK"
  ELISA signal (OD 405 nm): "0.021 OD 405 nm"
- binder: "mAb 1G5 (antibody, V domains shown, also called negative control) VH: QVQLQQPGAELVKPGASVKLSCKASGYTFTSYWINWVKQRPGQGLEWIGNIYPGNSNTNYNEKFKSKATLTVDKSSSTAYMQLSSLTSEDSAVYYCARRYYYDYDDAMDYWGQGTSVTVSS VL: DIVLTQSPASLAVSLGQRATISCRASESVDSYGNGFMHWYQQKPGQPPKLLIYRASNLESGIPARVSGSGSRTDFTLTINPVEADDVATYYCQQSNEDPWTFGGGTKLEIK"
  ELISA signal (OD 405 nm): "0.096 OD 405 nm"

Dear colleague, I am looking for the recorded ELISA signal (OD 405 nm) of the following binder: anti-hNav1.7 mAb 1H5 (antibody, V domains shown) VH: EVKLVESGGGLVKPGGSLKLSCAASGFTFRSYAMSWVRQTPEKGLEWVASISSGGSTYYPDSVKGRFTISRDNAGNILYLQMSSLRSEDTAMYYCARGYDGYYERIWYYAMDYWGQGTSVTVSS VL: DIVMTQSQKFMSTSVGDRVTVSCKASQNVGTIVAWYQQKPGQSPKALIYSASYRFSGVPDRFTGSGSGTDFTLTISNVQSEDLAEYFCQQYNTYPLTFGSGTKLEIK 0.042 OD 405 nm
